Recorded values, source ChEMBL document CHEMBL1136094.

Target: Cyclin-dependent kinase 4/cyclin D1 (Homo sapiens)
Sequence (P11802 whole entry): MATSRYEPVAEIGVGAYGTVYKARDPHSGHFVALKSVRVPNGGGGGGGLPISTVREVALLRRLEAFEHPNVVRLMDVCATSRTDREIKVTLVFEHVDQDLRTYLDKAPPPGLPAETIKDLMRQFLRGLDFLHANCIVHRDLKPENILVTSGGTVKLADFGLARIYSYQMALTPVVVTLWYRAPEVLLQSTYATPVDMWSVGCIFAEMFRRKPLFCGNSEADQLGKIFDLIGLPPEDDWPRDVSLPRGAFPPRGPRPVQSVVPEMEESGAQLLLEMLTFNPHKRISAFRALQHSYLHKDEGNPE
Sequence (P24385 whole entry, further chain): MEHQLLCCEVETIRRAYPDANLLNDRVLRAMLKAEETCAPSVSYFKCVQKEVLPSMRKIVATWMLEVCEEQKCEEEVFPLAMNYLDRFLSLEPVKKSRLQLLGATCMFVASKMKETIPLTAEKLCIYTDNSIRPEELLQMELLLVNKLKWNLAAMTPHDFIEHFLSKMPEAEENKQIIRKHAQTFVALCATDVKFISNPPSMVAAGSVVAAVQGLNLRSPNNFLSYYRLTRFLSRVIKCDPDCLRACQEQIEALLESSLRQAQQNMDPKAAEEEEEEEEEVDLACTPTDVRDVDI
Experiment: Inhibitory activity against Cyclin D1-cyclin-dependent kinase 4 in enzymatic assay by measuring phosphorylation of Rb21
Type: protein-complex assay
The following molecules are shown together with reported IC50 values.
reported_endpoint: IC50 (nM)

test_smiles=Cn1ccc2ccc3c4[nH]c5cc(O)ccc5c4c4c(c3c21)C(=O)NC4=O unit_symbol=nM readout_relation== numeric_readout=9
test_smiles=Cn1ccc2ccc3c4[nH]c5c(CCN6CCNCC6)cccc5c4c4c(c3c21)C(=O)NC4=O unit_symbol=nM readout_relation== numeric_readout=15
test_smiles=COC(=O)C1CCN(CCc2cccc3c2[nH]c2c4ccc5ccn(C)c5c4c4c(c32)C(=O)NC4=O)CC1 unit_symbol=nM readout_relation== numeric_readout=13
test_smiles=COc1ccc2c3c4c(c5c(ccc6ccn(C)c65)c3n(CCCN3CCC(O)CC3)c2c1)C(=O)NC4=O unit_symbol=nM readout_relation== numeric_readout=4
test_smiles=COc1ccc2c3c4c(c5c(ccc6ccn(C)c65)c3n(CCCN3CCC(C(N)=O)CC3)c2c1)C(=O)NC4=O unit_symbol=nM readout_relation== numeric_readout=13
test_smiles=O=C1NC(=O)c2c1c1c(ccc3cc[nH]c31)c1c2c2ccccc2n1CCCO unit_symbol=nM readout_relation== numeric_readout=12
test_smiles=COc1ccc2c3c4c(c5c(ccc6ccn(C)c65)c3n(CCO)c2c1)C(=O)NC4=O unit_symbol=nM readout_relation== numeric_readout=24
test_smiles=Cc1cc2ccn(C)c2c2c3c(c4c5ccc(C(F)(F)F)cc5[nH]c4c12)C(=O)NC3=O unit_symbol=nM readout_relation== numeric_readout=25
test_smiles=COc1ccc2[nH]c3c4ccc5ccn(C)c5c4c4c(c3c2c1)C(=O)NC4=O unit_symbol=nM readout_relation== numeric_readout=680
test_smiles=Cn1ccc2cc(F)c3c(c4c(c5c6ccccc6n(CCCO)c53)C(=O)NC4=O)c21 unit_symbol=nM readout_relation== numeric_readout=448
test_smiles=Cn1ccc2ccc3c4[nH]c5c(CCN6CCOCC6)cccc5c4c4c(c3c21)C(=O)NC4=O unit_symbol=nM readout_relation== numeric_readout=15
test_smiles=O=C1NC(=O)c2c1c1c(ccc3cc[nH]c31)c1[nH]c3ccccc3c21 unit_symbol=nM readout_relation== numeric_readout=22
test_smiles=Cc1cc2ccn(C)c2c2c3c(c4c5ccc(F)cc5[nH]c4c12)C(=O)NC3=O unit_symbol=nM readout_relation== numeric_readout=6
test_smiles=COc1ccc2c3c4c(c5c(ccc6ccn(C)c65)c3n(CCCN3CCOCC3)c2c1)C(=O)NC4=O unit_symbol=nM readout_relation== numeric_readout=21
test_smiles=COc1cc2ccn(C)c2c2c3c(c4c5ccccc5[nH]c4c12)C(=O)NC3=O unit_symbol=nM readout_relation== numeric_readout=18
test_smiles=Cn1ccc2ccc3c4[nH]c5cccc(F)c5c4c4c(c3c21)C(=O)NC4=O unit_symbol=nM readout_relation== numeric_readout=81
test_smiles=COc1ccc2c3c4c(c5c(ccc6ccn(C)c65)c3n(CCCN3CCN(C)CC3)c2c1)C(=O)NC4=O unit_symbol=nM readout_relation== numeric_readout=14
test_smiles=Cn1ccc2ccc3c4[nH]c5ccccc5c4c4c(c3c21)C(=O)NC4=O unit_symbol=nM readout_relation== numeric_readout=22
test_smiles=COc1ccc2c3c4c(c5c(ccc6ccn(C)c65)c3n(CCCN3CCSCC3)c2c1)C(=O)NC4=O unit_symbol=nM readout_relation== numeric_readout=47
test_smiles=COc1ccc2c(c1)[nH]c1c2c2c(c3c1c(C)cc1ccn(C)c13)C(=O)NC2=O unit_symbol=nM readout_relation== numeric_readout=7
test_smiles=Cc1ccc2c(c1)[nH]c1c3ccc4ccn(C)c4c3c3c(c21)C(=O)NC3=O unit_symbol=nM readout_relation== numeric_readout=18
test_smiles=COc1ccc2c3c4c(c5c(ccc6ccn(C)c65)c3n(CCCO)c2c1)C(=O)NC4=O unit_symbol=nM readout_relation== numeric_readout=12
test_smiles=Cn1ccc2ccc3c4[nH]c5c(CCN6CCSCC6)cccc5c4c4c(c3c21)C(=O)NC4=O unit_symbol=nM readout_relation== numeric_readout=24
test_smiles=COc1ccc2c3c4c(c5c(ccc6ccn(C)c65)c3n(CCN3CCC[C@H]3CO)c2c1)C(=O)NC4=O unit_symbol=nM readout_relation== numeric_readout=23
test_smiles=Cn1ccc2ccc3c4[nH]c5c(CCCNCCO)cccc5c4c4c(c3c21)C(=O)NC4=O unit_symbol=nM readout_relation== numeric_readout=19
test_smiles=O=C1NC(=O)c2c1c1c(ccc3cc[nH]c31)c1[nH]c3cc(OCc4ccccc4)ccc3c21 unit_symbol=nM readout_relation== numeric_readout=378
test_smiles=Cn1ccc2ccc3c4[nH]c5cccc(Br)c5c4c4c(c3c21)C(=O)NC4=O unit_symbol=nM readout_relation== numeric_readout=136
test_smiles=Cn1ccc2ccc3c4[nH]c5cc(Br)ccc5c4c4c(c3c21)C(=O)NC4=O unit_symbol=nM readout_relation=< numeric_readout=13
test_smiles=Cn1ccc2ccc3c4[nH]c5cc(C(F)(F)F)ccc5c4c4c(c3c21)C(=O)NC4=O unit_symbol=nM readout_relation== numeric_readout=9
test_smiles=Cn1ccc2ccc3c4[nH]c5c(CCCO)cccc5c4c4c(c3c21)C(=O)NC4=O unit_symbol=nM readout_relation== numeric_readout=40
test_smiles=Cn1ccc2ccc3c4[nH]c5c(CCN6CCC(O)CC6)cccc5c4c4c(c3c21)C(=O)NC4=O unit_symbol=nM readout_relation== numeric_readout=8
test_smiles=Cn1ccc2ccc3c4[nH]c5c(CCO)cccc5c4c4c(c3c21)C(=O)NC4=O unit_symbol=nM readout_relation== numeric_readout=75
test_smiles=COc1ccc2c3c4c(c5c(ccc6ccn(C)c65)c3n(CCN[C@H]3CC[C@H](O)CC3)c2c1)C(=O)NC4=O unit_symbol=nM readout_relation== numeric_readout=23
test_smiles=Cc1cc2ccn(C)c2c2c3c(c4c5ccccc5n(C)c4c12)C(=O)NC3=O unit_symbol=nM readout_relation== numeric_readout=45
test_smiles=Cn1ccc2ccc3c4[nH]c5cc(C#N)ccc5c4c4c(c3c21)C(=O)NC4=O unit_symbol=nM readout_relation== numeric_readout=11
test_smiles=Cn1ccc2ccc3c4[nH]c5c(CCCN[C@H]6CC[C@H](O)CC6)cccc5c4c4c(c3c21)C(=O)NC4=O unit_symbol=nM readout_relation== numeric_readout=19
test_smiles=Cn1ccc2ccc3c4[nH]c5cccc(CO)c5c4c4c(c3c21)C(=O)NC4=O unit_symbol=nM readout_relation== numeric_readout=216
